tgt: Met kinase (Homo sapiens, UniProt P08581)
Sequence (P08581 974-1390 limits assumed): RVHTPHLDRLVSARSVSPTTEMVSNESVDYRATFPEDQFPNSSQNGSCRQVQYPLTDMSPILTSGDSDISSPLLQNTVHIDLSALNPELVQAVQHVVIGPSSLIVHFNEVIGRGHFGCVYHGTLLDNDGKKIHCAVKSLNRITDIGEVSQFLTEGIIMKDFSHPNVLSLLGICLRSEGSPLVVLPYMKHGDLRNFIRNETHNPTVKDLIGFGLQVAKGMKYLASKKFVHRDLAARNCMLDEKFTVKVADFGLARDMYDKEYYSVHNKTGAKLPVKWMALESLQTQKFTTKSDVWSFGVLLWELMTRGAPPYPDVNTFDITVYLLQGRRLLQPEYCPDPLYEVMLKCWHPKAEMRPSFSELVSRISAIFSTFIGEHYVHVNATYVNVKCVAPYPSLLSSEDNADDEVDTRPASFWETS
The threshold is 9 nM. Values of IC50 beneath it are tagged Met; values meeting or exceeding it are tagged Not met.

Illustrative cases are given below, each with its answer.
> print(dat)
                                   molecule    group
1  O=C(Cc1ccc2[nH]cnc2c1)N1CCC(c2cc(Cl)ccc2O)=N1      Met
2  COc1ccc(C2=NN(C(=O)Cc3cccc(O)c3)CC2)c(OC)c1  Not met
3  COc1ccc(C2=NN(C(=O)Cc3ccc4nsnc4c3)CC2)c(OC)c1  Not met
4  CN(C)CCCOC(=O)Nc1cccc(CC(=O)N2CCC(c3cc(Cl)ccc3Cl)=N2)c1      Met

Let us examine a further case.
Input line: I wonder whether CC(C(=O)N1CCC(c2cc(Cl)ccc2O)=N1)c1ccc(O)cc1 (stereo not drawn) has IC50 below 9 nM. Can you tell?
Output line: Met
